Assignment: determine reported total protein half-life in vivo for the given sequences.
Assay: total protein half-life in vivo (active degradation + dilution); higher = more stable protein
Conditions: wild type E. coli NCM3722; growth: N-lim chemostat; doubling time 6 h
Response body: numeric value in h, unit text excluded.

Problem: Read the entry MSHPALTQLRALRYCKEIPALDPQLLDWLLLEDSMTKRFEQQGKTVSVTMIREGFVEQNEIPEELPLLPKESRYWLREILLCADGEPWLAGRTVVPVSTLSGPELALQKLGKTPLGRYLFTSSTLTRDFIEIGRDAGLWGRRSRLRLSGKPLLLTELFLPASPLY and write its reported total protein half-life in vivo.
Solution: 3.15

Problem: // fetch total protein half-life in vivo given entry MSQLTHINAAGEAHMVDVSAKAETVREARAEAFVTMRSETLAMIIDGRHHKGDVFATARIAGIQAAKRTWDLIPLCHPLMLSKVEVNLQAEPEHNRVRIETLCRLTGKTGVEMEALTAASVAALTIYDMCKAVQKDMVIGPVRLLAKSGGKSGDFKVEADD [P0A738]
Solution: 4.1

Problem: Return reported total protein half-life in vivo. Input sequence: MRTQWPSPAKLNLFLYITGQRADGYHTLQTLFQFLDYGDTISIELRDDGDIRLLTPVEGVEHEDNLIVRAARLLMKTAADSGRLPTGSGANISIDKRLPMGGGLGGGSSNAATVLVALNHLWQCGLSMDELAEMGLTLGADVPVFVRGHAAFAEGVGEILTPVDPPEKWYLVAHPGVSIPTPVIFKDPELPRNTPKRSIETLLKCEFSNDCEVIARKRFREVDAVLSWLLEYAPSRLTGTGACVFAEFDTESEARQVLEQAPEWLNGFVAKGANLSPLHRAML
Solution: 4.43

Problem: Give total protein half-life in vivo for MIVRPQQHWLRRIFVWHGSVLSKISSRLLLNFLFSIAVIFMLPWYTHLGIKFTLAPFSILGVAIAIFLGFRNNAGYARYVEARKLWGQLMIASRSLLREVKTTLPDSASVREFARLQIAFAHCLRMTLRKQPQAEVLAHYLKTEDLQRVLASNSPANRILLIMGEWLAVQRRNGQLSDILFISLNDRLNDISAVLAGCERIAYTPIPFAYTLILHRTVYLFCIMLPFALVVDLHYMTPFISVLISYTFISLDCLAEELEDPFGTENNDLPLDAICNAIEIDLLQMNDEAEIPAKILPDRHYQLT
Solution: 3.6

* * *

Assay: total protein half-life in vivo (active degradation + dilution); higher = more stable protein
Conditions: wild type E. coli NCM3722; growth: N-lim chemostat; doubling time 12 h
Hi there, I'd appreciate the recorded total protein half-life in vivo for every entry that follows.
Only the number, expressed in h, is required.

Problem: Name the recorded total protein half-life in vivo of the sequence listed here: MQILADLLNTIPAIDSTAMSRAQRHIDGLLKPVGSLGKLEVLAIQLAGMPGLNGIPHVGKKAVLVMCADHGVWEEGVAISPKEVTAIQAENMTRGTTGVCVLAEQAGANVHVIDVGIDTAEPIPGLINMRVARGSGNIASAPAMSRRQAEKLLLDVICYTQELAKNGVTLFGVGELGMANTTPAAAIVSTITGRDPEEVVGIGANLPTDKLANKIDVVRRAITLNQPNPQDGVDVLAKVGGFDLVGIAGVMLGAASCGLPVLLDGFLSYAAALAACQMSPAIKPYLIPSHLSAEKGARIALSHLGLEPYLNMEMRLGEGSGAALAMPIIEAACAIYNNMGELAASNIVLPGNTTSDLNS
Solution: 5.18

Problem: Find the measured total protein half-life in vivo of MVTSCTGHVLDNQRATTRGVFSSGSHLVTLHFQPHPFFSCVTDAVNGARSRFSAFYPKANYGLQGSQPSDVRAHNRAANGACDEYKQLKVLSMGRQKAVIKARREAKRVLRRDSRSHKQREEESVTSLVQMGGVEAIGMARDSRDTSPILARNEAQLHYLKAIESKQLIFATGEAGCGKTWISAAKAAEALIHKDVDRIIVTRPVLQADEDLGFLPGDIAEKFAPYFRPVYDVLVRRLGASFMQYCLRPEIGKVEIAPFAYMRGRTFENAVVILDEAQNVTAAQMKMFLTRLGENVTVIVNGDITQCDLPRGVCSGLSDALERFEEDEMVGIVRFGKEDCVRSALCQRTLHAYS [P0A9K1] and report it.
Solution: 0.571

* * *

Assay: total protein half-life in vivo (active degradation + dilution); higher = more stable protein
Conditions: E. coli NCM3722 delta-lon; growth: N-lim chemostat; doubling time 6 h
Provide the recorded total protein half-life in vivo for the entries that follow.
Reply with the number and its unit after it.

Problem: Return total protein half-life in vivo for the following sequence: MIIYLHGFDSNSPGNHEKVLQLQFIDPDVRLISYSTRHPKHDMQHLLKEVDKMLQLNVDERPLICGVGLGGYWAERIGFLCDIRQVIFNPNLFPYENMEGKIDRPEEYADIATKCVTNFREKNRDRCLVILSRNDEALNSQRTSEELHHYYEIVWDEEQTHKFKNISPHLQRIKAFKTLG [P0A8E1]
Solution: 4.75 h

Problem: Annotate the sequence MSSRNNPARVAIVMGSKSDWATMQFAAEIFEILNVPHHVEVVSAHRTPDKLFSFAESAEENGYQVIIAGAGGAAHLPGMIAAKTLVPVLGVPVQSAALSGVDSLYSIVQMPRGIPVGTLAIGKAGAANAALLAAQILATHDKELHQRLNDWRKAQTDEVLENPDPRGAA [P0AG18] with its measured total protein half-life in vivo.
Solution: 4.93 h

Problem: // Input: MMVIRPVERSDVSALMQLASKTGGGLTSLPANEATLSARIERAIKTWQGELPKSEQGYVFVLEDSETGTVAGICAIEVAVGLNDPWYNYRVGTLVHASKELNVYNALPTLFLSNDHTGSSELCTLFLDPDWRKEGNGYLLSKSRFMFMAAFRDKFNDKVVAEMRGVIDEHGYSPFWQSLGKRFFSMDFSRADFLCGTGQKAFIAELMPKHPIYTHFLSQEAQDVIGQVHPQTAPARAVLEKEGFRYRNYIDIFDGGPTLECDIDRVRAIRKSRLVEVAEGQPAQGDFPACLVANENYHHFRVVLVRTDPATERLILTAAQLDALKCHAGDRVRLVRLCAEEKTA [P0AE37] . Output its total protein half-life in vivo only.
Solution: 2.88 h

* * *

Consider the following sequences; for each one, report its total protein half-life in vivo.
Experiment: total protein half-life in vivo (active degradation + dilution); higher = more stable protein
Conditions: wild type E. coli NCM3722; growth: P-lim chemostat; doubling time 12 h
State the answer as a number, implicitly in h.

Problem: Please list total protein half-life in vivo recorded for the sequence MALLDFFLSRKKNTANIAKERLQIIVAERRRSDAEPHYLPQLRKDILEVICKYVQIDPEMVTVQLEQKDGDISILELNVTLPEAEELK [P0A734]
Solution: 8.17

Problem: Identify measured total protein half-life in vivo corresponding to MTNNPLIPQSKLPQLGTTIFTQMSALAQQHQAINLSQGFPDFDGPRYLQERLAHHVAQGANQYAPMTGVQALREAIAQKTERLYGYQPDADSDITVTAGATEALYAAITALVRNGDEVICFDPSYDSYAPAIALSGGIVKRMALQPPHFRVDWQEFAALLSERTRLVILNTPHNPSATVWQQADFAALWQAIAGHEIFVISDEVYEHINFSQQGHASVLAHPQLRERAVAVSSFGKTYHMTGWKVGYCVAPAPISAEIRKVHQYLTFSVNTPAQLALADMLRAEPEHYLALPDFYRQKRDILVNALNESRLEILPCEGTYFLLVDYSAVSTLDDVEFCQWLTQEHGVAAIPLSVFCADPFPHKLIRLCFAKKESTLLAAAERLRQL
Solution: 8.16

Problem: Determine its reported total protein half-life in vivo: MVFRIASSPYTHNQRQTSRIMLLVLLAAVPGIAAQLWFFGWGTLVQILLASVSALLAEALVLKLRKQSVAATLKDNSALLTGLLLAVSIPPLAPWWMVVLGTVFAVIIAKQLYGGLGQNPFNPAMIGYVVLLISFPVQMTSWLPPHEIAVNIPGFIDAIQVIFSGHTASGGDMNTLRLGIDGISQATPLDTFKTSVRAGHSVEQIMQYPIYSGILAGAGWQWVNLAWLAGGVWLLWQKAIRWHIPLSFLVTLALCAMLGWLFSPETLAAPQIHLLSGATMLGAFFILTDPVTASTTNRGRLIFGALAGLLVWLIRSFGGYPDGVAFAVLLANITVPLIDYYTRPRVYGHRKG
Solution: 13

Problem: Let me know recorded total protein half-life in vivo for MSNTPIELKGSSFTLSVVHLHEAEPKVIHQALEDKIAQAPAFLKHAPVVLNVSALEDPVNWSAMHKAVSATGLRVIGVSGCKDAQLKAEIEKMGLPILTEGKEKAPRPAPTPQAPAQNTTPVTKTRLIDTPVRSGQRIYAPQCDLIVTSHVSAGAELIADGNIHVYGMMRGRALAGASGDRETQIFCTNLMAELVSIAGEYWLSDQIPAEFYGKAARLQLVENALTVQPLN , thanks.
Solution: 11.2

Problem: In one line, give reported total protein half-life in vivo of the entry MSHLAELVASAKAAISQASDVAALDNVRVEYLGKKGHLTLQMTTLRELPPEERPAAGAVINEAKEQVQQALNARKAELESAALNARLAAETIDVSLPGRRIENGGLHPVTRTIDRIESFFGELGFTVATGPEIEDDYHNFDALNIPGHHPARADHDTFWFDTTRLLRTQTSGVQIRTMKAQQPPIRIIAPGRVYRNDYDQTHTPMFHQMEGLIVDTNISFTNLKGTLHDFLRNFFEEDLQIRFRPSYFPFTEPSAEVDVMGKNGKWLEVLGCGMVHPNVLRNVGIDPEVYSGFAFGMGMERLTMLRYGVTDLRSFFENDLRFLKQFK .
Solution: 12.9

Problem: Consider the sequence MTSPNILLTRIDNRLVHGQVGVTWTSTIGANLLVVVDDVVANDDIQQKLMGITAETYGFGIRFFTIEKTINVIGKAAPHQKIFLICRTPQTVRKLVEGGIDLKDVNVGNMHFSEGKKQISSKVYVDDQDLTDLRFIKQRGVNVFIQDVPGDQKEQIPD and give its recorded total protein half-life in vivo.
Solution: 11

Problem: Given MSNQEPATILLIDDHPMLRTGVKQLISMAPDITVVGEASNGEQGIELAESLDPDLILLDLNMPGMNGLETLDKLREKSLSGRIVVFSVSNHEEDVVTALKRGADGYLLKDMEPEDLLKALHQAAAGEMVLSEALTPVLAASLRANRATTERDVNQLTPRERDILKLIAQGLPNKMIARRLDITESTVKVHVKHMLKKMKLKSRVEAAVWVHQERIF [P0AF28] , respond with its total protein half-life in vivo.
Solution: 9.74

Problem: Annotate the sequence MFDIGFSELLLVFIIGLVVLGPQRLPVAVKTVAGWIRALRSLATTVQNELTQELKLQEFQDSLKKVEKASLTNLTPELKASMDELRQAAESMKRSYVANDPEKASDEAHTIHNPVVKDNEAAHEGVTPAAAQTQASSPEQKPETTPEPVVKPAADAEPKTAAPSPSSSDKP with its measured total protein half-life in vivo.
Solution: 7.92

Problem: Output measured total protein half-life in vivo for this item: MTQFNPVDHPHRRYNPLTGQWILVSPHRAKRPWQGAQETPAKQVLPAHDPDCFLCAGNVRVTGDKNPDYTGTYVFTNDFAALMSDTPDAPESHDPLMRCQSARGTSRVICFSPDHSKTLPELSVAALTEIVKTWQEQTAELGKTYPWVQVFENKGAAMGCSNPHPHGQIWANSFLPNEAEREDRLQKEYFAEQKSPMLVDYVQRELADGSRTVVETEHWLAVVPYWAAWPFETLLLPKAHVLRITDLTDAQRSDLALALKKLTSRYDNLFQCSFPYSMGWHGAPFNGEENQHWQLHAHFYPPLLRSATVRKFMVGYEMLAETQRDLTAEQAAERLRAVSDIHFRESGV
Solution: 11.7

Problem: Identify measured total protein half-life in vivo corresponding to MANWLNQLQSLLGQSSSSTSSSADQGLVKLLVPGALGGLAGLLVANKSARKLLTKYGTNALLVGGGAVAGTVLWNKYKDKIRAAHQDEPQFGAQSTPLDERTARLILALVFAAKSDGHIDAKERAAIDQQLRGAGVEEQGRVLIEQAIEQPLDPQRLATGVRNEEEALEIYFLSCAAIDIDHFMERSYLNALGDALKIPQDVRDGIERDLEQQKRTLAE
Solution: 5.71

Problem: Determine from records and report total protein half-life in vivo for MIYLRKANERGHANHGWLDSWHTFSFANYYDPNFMGFSALRVINDDVIEAGQGFGTHPHKDMEILTYVLEGTVEHQDSMGNKEQVPAGEFQIMSAGTGIRHSEYNPSSTERLHLYQIWIMPEENGITPRYEQRRFDAVQGKQLVLSPDARDGSLKVHQDMELYRWALLKDEQSVHQIAAERRVWIQVVKGNVTINGVKASTSDGLAIWDEQAISIHADSDSEVLLFDLPPV
Solution: 11.6
